system: Peroxisome proliferator-activated receptor alpha (Mus musculus)
Sequence (P23204 whole entry): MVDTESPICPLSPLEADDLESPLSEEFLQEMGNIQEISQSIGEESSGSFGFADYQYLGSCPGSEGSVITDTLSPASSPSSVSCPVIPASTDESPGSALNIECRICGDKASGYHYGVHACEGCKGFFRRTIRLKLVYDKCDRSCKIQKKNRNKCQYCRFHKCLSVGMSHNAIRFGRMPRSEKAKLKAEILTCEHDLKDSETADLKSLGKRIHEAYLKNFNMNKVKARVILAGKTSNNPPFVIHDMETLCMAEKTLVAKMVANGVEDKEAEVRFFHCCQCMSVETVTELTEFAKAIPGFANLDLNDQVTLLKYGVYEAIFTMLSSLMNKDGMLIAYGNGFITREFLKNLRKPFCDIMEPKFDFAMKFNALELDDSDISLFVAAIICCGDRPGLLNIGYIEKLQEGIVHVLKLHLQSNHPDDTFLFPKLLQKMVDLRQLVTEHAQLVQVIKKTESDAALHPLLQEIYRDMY
test summary: Effective concentration against murine PPARalpha in transactivation assay
measure name: EC50
Write the figure, then the unit, nothing else.

Query (compound): `O=C(O)[C@H](Cc1ccccc1)Oc1ccc(C(F)(F)F)cc1` ; field requested: EC50
270 nM

// query EC50 value for entry `O=C(O)[C@H](Cc1ccccc1)Oc1ccc(-c2cccs2)cc1`
150 nM

Tell me the measured EC50 of `CC(C)(Oc1ccc(Cl)cc1)C(=O)O` , please.
42000 nM

State the recorded EC50 for this entry: `CCc1ccc(O[C@@H](Cc2ccccc2)C(=O)O)cc1`
350 nM

Fill blank: measured EC50 of the compound `O=C(O)[C@H](Cc1ccccc1)Oc1ccc(Cl)cc1` is ____.
1300 nM

For the compound shown here, `O=C(O)[C@H](Cc1ccccc1)Oc1ccc(-c2ccccc2)cc1` , give the reported EC50.
200 nM

Where do the numbers come from? From ChEMBL document CHEMBL1145171.
